Test system: Hep3B
PROTOCOL_SUMMARY: CellTiter-Glo IG50, Example 9 HCC panel, Hep3B
Type: cell-based
TEST_SETTINGS: Homo sapiens, 72 hours
IC50 strictly less than 4 µM = Fulfilled. Otherwise Not fulfilled.

Consider the following illustrative entries.
CC(C)(C)CCOc1ccc2cc3c(=O)[nH]c(=O)nc-3oc2c1Cl [IT-845] ... Fulfilled
CCCCCCOc1ccc2cc3c(=O)[nH]c(=O)nc-3oc2c1Cl [IT-848] ... Fulfilled
CCCCCCCOc1ccc2cc3c(=O)[nH]c(=O)nc-3oc2c1Cl [IT-846] ... Fulfilled
COCCOCCOc1ccc2cc3c(=O)[nH]c(=O)nc-3oc2c1Cl [IT-876] ... Not fulfilled
CNC(=O)c1cc(Oc2ccc(NC(=O)Nc3ccc(Cl)c(C(F)(F)F)c3)cc2)ccn1 [Sorafenib, sorafenib, reference compound] ... Not fulfilled
O=C(O)CCCCCOc1ccc2cc3c(=O)[nH]c(=O)nc-3oc2c1Cl [IT-855] ... Not fulfilled
CCCCCCOc1cc2oc3nc(=O)[nH]c(=O)c-3cc2cc1F [IT-835] ... Fulfilled

# ---- query molecule ----
Task item: Here's an entry: CCCCCOc1ccc2cc3c(=O)[nH]c(=O)nc-3oc2c1Cl [IT-843] . Is its IC50 below 4 µM?
Reply: Fulfilled

###

For each record, write down the corresponding pIC50.
Tested on: HCT116
PROTOCOL_SUMMARY: CellTiter-Glo IG50, Example 8, HCT116
Type: cell-based
TEST_SETTINGS: Homo sapiens, HCT-116, HCT116, 72 hours
Answers are plain numbers, as −log10 of the molar value.

CCCCCOc1ccc2cc3c(=O)[nH]c(=O)nc-3oc2c1Cl ... 5.03

From here, focus on the item given below.
Task item: Query pIC50 for O=c1[nH]cc(F)c(=O)[nH]1 [5-FU, 5-fluorouracil, reference compound]
Reply: 5.28

###

System: MKN45
PROTOCOL_SUMMARY: CellTiter-Glo IG50, Example 8, MKN45
Assay type: cell-based
TEST_SETTINGS: Homo sapiens, MKN-45, MKN45, 72 hours
Exercise: for every item that follows, state its recorded IC50.

The following molecules have reported results that may help.
CCCCCOc1ccc2cc3c(=O)[nH]c(=O)nc-3oc2c1Cl ... > 16 µM
O=c1[nH]cc(F)c(=O)[nH]1 [5-FU, 5-fluorouracil, reference compound] ... 4.72 µM
CCCCCCOc1ccc2cc3c(=O)[nH]c(=O)nc-3oc2c1Cl ... > 16 µM
CC(C)CCCOc1cc2oc3nc(=O)[nH]c(=O)c-3cc2cc1F ... > 16 µM

Task item: Item COCCCCOc1ccc2cc3c(=O)[nH]c(=O)nc-3oc2c1Cl : provide IC50
Reply: > 16 µM

###

Test system: Hep3B
PROTOCOL_SUMMARY: CellTiter-Glo IG50, Example 8, Hep3B
Type: cell-based
TEST_SETTINGS: Homo sapiens, 72 hours
MEASURED_QUANTITY: IC50 (µM)
Numbers only, in µM.

# example entries with known answers
CNC(=O)c1cc(Oc2ccc(NC(=O)Nc3ccc(Cl)c(C(F)(F)F)c3)cc2)ccn1 [Sorafenib, sorafenib, reference compound] ... 7.49
CCCCCCOc1ccc2cc3c(=O)[nH]c(=O)nc-3oc2c1Cl [IT-848] ... 2.43
CC(C)CCCOc1cc2oc3nc(=O)[nH]c(=O)c-3cc2cc1F [IT-839] ... 3.35
CCCCCOc1ccc2cc3c(=O)[nH]c(=O)nc-3oc2c1Cl [IT-843] ... 1.42

Let us examine a further case.
Task item: Tell me its IC50 given COCCCCOc1ccc2cc3c(=O)[nH]c(=O)nc-3oc2c1Cl [IT-878] as the entry.
Reply: 3.45
